meta.source: patent US20170052184A1

Biological target: T1, HCV bt-141-161 (Peptide 2, HCVc 141-161) (Hepatitis C virus (numbering per HCV-1), biotin (carboxy-terminal per; N-terminal per))
T1 peptide: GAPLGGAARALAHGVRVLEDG
Experiment: EIA, captured mAb + biotin peptide
Exercise: for every item that follows, state its recorded Reactivity (OD 492 nm).
# unit: OD units | format: bare number

Looking up HCV 208B-471 (antibody, V domains shown) VH: QGQLQQSGPVLVKPGASEILYCKTSGFTFSSTYISWLKQKPGQSLEWIAWIYAGTGATNYNQKFTGKAQLTVDASSNTAYMHFSGLTPEDSAIYYCAISGAGVYWGQGTLVTVSA VL: DVVMTQTPLSLPVSLGDQASISCRSSQSLLHSNGNTYLEWYLQKPGQSPNLLIYNVSNRFSGVPDRFSGSGSGTDFALKISRVGAEDLGVYYCFQGSHVPLTFGAGTKLELKR , I found its Reactivity (OD 492 nm) recorded as 0.11

So for HCV 208A-126 (antibody, V domains shown) VH: QLQQSGPVLVKPGASVMISCKTSGYTFTENAMHWVKQSHGKSLEWIGGVNPNNGDTIFNQKFKGKATLTVDKSSNTAFTELRSLPSEESTVYYCVRRGLDFFDYWGQGTSVTVSS VL: DIVLTQSPASLAVSLGQRATISCRASQSVSTSRYSYMHWYQQKPGQPPKLLIKYASNLESGVPARFSGSGSGTDFTLNIHPVAEEDTAAYYCQHSWEFPFTFGSGTKLEIKR , the logged Reactivity (OD 492 nm) turned out to be 2.08
